Test Name: yeast display, Sf9 membrane polyspecificity reagent, FACS + sequencing; frameworks hold sequencing errors

| Residue Codes | polyreactivity (PSR sort gate) |
| --- | --- |
| QVQLVESGGGLVQAGGSLRLSCAASGFIFGHNAMGWYRQAPGKERELVASISKSGGDTYYADSVKGRFTISRDNAKNTVYLQMNSLKPEDTAVYYCAAQGAVFEILDYWGQGTQVTVSS | low polyreactivity |
| QVQLVESGGGLDQAGGSLRLSCAASGRIFTVYAMGGYRQAPGKERELVAAISGRGGRTYYADSVKGRFTISRDIAKNTVYLQMNSLKPEDTAVYYCNADTLTLTRPDGDIHTVWMDYWGQGTQVTVSS | low polyreactivity |
| QVQLVESGGGLVQAGGSLRLSCAASGRTFHAYAMGWSRQAPGKGRELVAAITRTGTTHYADSVKGRFTISRDNAKNTVYLQMNSLKPEDTAVYYCAAQHVRVDAQFVLQGYDYWGQGTQVTVSS | low polyreactivity |
| QVQLVESGGGLVQAGGSLRLSCAASGFILGVYAMGWYRQAPGKERELVAAITFSGASTYYADSVKGRFTISRDNAKNTVYLQMNSLKPEDTAVYYCNKTSAYYRYEYWGQGTQVTVSS | low polyreactivity |
| QVQLVESGGGLVQAGGSLRLSCAASGRTFGYNAMGWYRQAPGKERQFVAAISWSGGRTYYADSVKGRFTISRDNAKNTVYLQMNSLKPEDTAVYYCAAAAPHLSAKMDYWGQGTQVTVSS | low polyreactivity |
| EVQLVESGGGLVQAGGSLRLICAASGRTFQNYAMGWYRQAPGKERELVADITSGGSTYADSVKGRFTISRDNAKNTVYLQMNSLKPEDTAVYYCNADRTYPEPAEYYYWGQGTQVTVSS | low polyreactivity |
| QVQLVESGGGFVHAGGSLRLSCAASGLIFGKYAMGWYRQAPGKERELVAAITSSGGGTYYADSVKGRFTISRDNAKNTVSLQMNSVKADDTAVYYCATGPDPKYDYRGQGTQVTVSS | high polyreactivity |
| HVQLVESGGGLVQAGGSLRLSCAASGGIFRGYTMGWYRQAPGKETEFVAAITYGGGGTYYADSVKGRFTISRDNAKNTVYLQMNSLKPEDTAVYYCNADLSDVAVTDHDYWGQGTQVTVSS | low polyreactivity |
| QVQLVESVGGLVQAGGSLRISCAASGSIFAINAMGWYRQAPVKERELVAAIRTAGRTYYADSVKGRFTISRDNAKNTVYLQMNSLKPEDSSVYDCNDGGKWIGSDYWGQGTQVTVSS | high polyreactivity |
| QVQLVESGGGLVQAGGSLRLSCAASGSIFIANAMGWYRKAPGKERELVAAISRSGSTTYYADSVKGRFTISRDNAKNTVYLQMNSLKPEDTAVNYCNARYSLHSYYWFIYDSWGQGTQVTVSS | low polyreactivity |
| QVQLVESGGGLVQAGGSLRLSCAASGSIFAIYVMGWYRQAPGKERELVAAITWSGGSTYYADSVKGRFTISRDNAKNTVDLQMNSLKPEDTAVYYCAARVLRVRTVTTTWGQGTQVTLSS | high polyreactivity |
| QVQRVESGGGLVQAGGSLRLSCAASGFIFDDKAMGWYRQAPGKERELVAAITSGGGSTYYADSVKGRFTISRDNAKNTVYLQMNSLKPEDTAVYYCNAVPSQHDEFDYWGQGTQVTVSS | low polyreactivity |
| QVQLEESGGGLVQAGGSLRLSCPASGRTSYGNTMGTYRQAPGKERELVATISGGGSTNYADSVKGRFTISRDNAKNTVYLQMNSLKPEDTAVYYCAARRYPFPGYRYYFWGQGTQVTVSS | high polyreactivity |
| QVQLVESGGGLVQAGGSLRLSCAASGLTLKRNAMGWYRQAPGKERELVAAISGRGGSTYYADSVKGRFTISRDNAKNTVYLQMNSLKPEVTAVYYCAATVQYSPIYDYWGQGTQVTVSS | high polyreactivity |
| QVQLLESGGGLVQAGRSLRLSCAPSGIIFRVYAMGWYRQAPGKERELVAAISSSGGNTYYADSVKGRFTISRDNAKNTVYLQLNSLKPEDTAVYYCAAPYGQLFTQGTWYEYWGQGTQVTVSS | low polyreactivity |
| QVQLVESGGGLVQAGGSLRLSCAASGSIFTFYTMGWYRQAPGKERELVAAISQTGGRTYYADSVKGRFTISRDNAKNTVYLQMNSLKPEDTAVYYCAARSKRLAHDYWGQGTQVTVSS | high polyreactivity |
| QVQLVESGGGLVQAGGSLRLSCAASGFTFKYNVMGWYRQAPGKERELVSAISKRGGNTYYADSVKGRFTISRDIAKNTVYLQMNSLKPVDTAVYYCAADPTSPETSGQGYDYWGQGTQVTVSS | high polyreactivity |
| QVQLVESGGGLVQAGGSLRLSCAASGSTFQVYGMGWYRQAPGKERELVAAISRSGGRTYYADSVKGRFTISRDNAKNTVYLQMNSLKPEDTAVYYCNAPISYYDEYYYWGQGTQVTVSS | high polyreactivity |
| QVQLVESGGGLVQAGGSLRLSCAASGRIFGYNSMGWYRQAPGKERELVAAIRRSGGRTFYADSVKGRFTLSRDNAKNTVYLQMNRLKPEDTAVYYCAVRGPGTSTYWYHEYEYWGQGTQVTVSS | high polyreactivity |
| QVQLVESGRGLVLAGGSLRLSCAASGRIFRVNAMGWYRQAPGKERELVAAISRGGNTYYADSVKGRFTISRDNEKNTVSLQMNSLKPEDTAVYYCAASRSWPRMDYWGQGTQVSVSS | high polyreactivity |
| QVQLVESGGGLVQAGGSLRLSCAASGGTIAYNAMGWYRQAPGKERELVAAISSSGGRTYYADSVKGRFTISRDNAKNTVYLQMNSLKPEDTAVYFCATPVNNGFDYWGQGTQVTLSS | high polyreactivity |
